- Tested on: A549/ATCC NSCLC
- experiment.notes: NCI-60 one-dose screen, 48 h
- assay.conditions: 10 µM unless noted
- Description: Growth inhibition of the A549/ATCC human Non-Small Cell Lung tumor cell line is measured as a screen for anti-cancer activity. Cells are grown in 96 well plates and exposed to the test compound for 48 hours. Compounds are tested at a single concentration, which is 10^-5 M for most compounds. The reported endpoint is percent growth (GI% or GIPRCNT), where numbers from 0 - 100% represent growth inhibition, and numbers from -100% - 0 represent cell death. […]
This is part of a sample that, as a whole, favours compounds with a hit. Of some 83,000 tested, about 20% had one in any assay. Active and inactive are the calls of the source. How the source made its calls: active means growth percent below 10; inactive means the rest.
Result category, one only: active, inactive

{"molecule": "CCN(CC)c1ccnc(CNCCSC(c2ccccc2)(c2ccccc2)c2ccc(C)cc2)c1", "category": "active"}
{"molecule": "COc1ccccc1C(=O)NN1C(=O)/C(=C/C2=Cc3ccccc3OC2)SC1=S", "category": "inactive"}
{"molecule": "COc1ccc(C(=O)/C=C/c2cccnc2)cc1S(N)(=O)=O", "category": "inactive"}

Lab log entry: O=c1oc2ccccc2cc1-c1csc(N2N=C(c3ccccc3)CC2c2ccc(N3CCOCC3)cc2)n1 (centres undefined) — outcome as called in the assay?
inactive

* * *

# growth values compiled below
- System: MDA-MB-468 breast
- experiment.notes: NCI-60 one-dose screen, 48 h (100 = growth as untreated, 0 = no growth, -100 = all killed)
- assay.conditions: 10 µM unless noted
- Experimental: Growth inhibition of the MDA-MB-468 human Breast tumor cell line is measured as a screen for anti-cancer activity. Cells are grown in 96 well plates and exposed to the test compound for 48 hours. Compounds are tested at a single concentration, which is 10^-5 M for most compounds. The reported endpoint is percent growth (GI% or GIPRCNT), where numbers from 0 - 100% represent growth inhibition, and numbers from -100% - 0 represent cell death. […]
This is part of a sample that, as a whole, favours compounds with a hit. Of some 83,000 tested, about 20% had one in any assay.
All answers are understood in %, so give the number only.

{"compound": "Cc1ccc(C(=O)C(c2c[nH]c3ccccc23)c2c[nH]c3ccccc23)cc1", "growth / %": 26}
{"compound": "Cn1cc(-c2cc(N)n3nc(-c4c[nH]c5ccccc45)cc3n2)c2cc(Br)cnc21", "growth / %": -88.5}

Query (compound): CC1=C(C(=O)OC(C)C)C(c2cccc(O)c2)NC(=S)N1 (centres undefined) ; field requested: growth
92

Query (compound): `COc1cc(/C=C/C(=O)c2ccc(C)cc2)ccc1Oc1nc(Nc2ccc(F)cc2)nc(N(C)C)n1` ; field requested: growth
40.1

Query (compound): `CSc1ccccc1NC(=O)c1ccc2nn(/C(C#N)=C/c3ccccn3)nc2c1` ; field requested: growth
-84.2

Query (compound): `O=C(c1ccc(Cl)cc1)c1ccc(OCCCN2CCN(c3ccncc3)CC2)cc1` ; field requested: growth
-16.8

Query (compound): `N=C1N=C(SCc2nc3ccccc3[nH]2)NC(=O)/C1=C/c1ccc(Cl)cc1` ; field requested: growth
116

Query (compound): `O=C(N=Nc1c(O)[nH]c2ccc(Cl)cc12)c1ccc2nc(-c3ccccc3)[nH]c2c1` ; field requested: growth
-31.3

Query (compound): COc1c(F)ccc(C(=O)Nc2ccc3nc(NC(=O)C4CCCN(S(=O)(=O)c5ccc(Br)c(F)c5)C4)sc3c2)c1F (centres undefined) ; field requested: growth
92

Query (compound): `O=C(NNc1nc2cc(F)ccc2n2c(C(=O)N3CCN(C4CC4)CC3)ccc12)c1ncccn1` ; field requested: growth
14.1

Query (compound): `CCC(C)(C)c1ccc(OCCCCCCN2CCN(c3ccncc3)CC2)cc1` ; field requested: growth
-81.5

Query (compound): `CNS(=O)(=O)c1ccc(Nc2ccc(C(F)(F)F)cc2)c(-c2cn(C)cn2)c1` ; field requested: growth
-1.31

Query (compound): `CCN(CC)c1ccc(/C=N/Nc2nc(-c3ccc(Br)cc3)cs2)c(O)c1` ; field requested: growth
69

Query (compound): `O=c1oc2ccc(Br)cc2cc1C1=CSc2nc3sc4c(c3c(=O)n2N=C1)CCCC4` ; field requested: growth
104

* * *

- Test system: OVCAR-8 ovarian
- experiment.notes: NCI-60 one-dose screen, 48 h (100 = growth as untreated, 0 = no growth, -100 = all killed)
- assay.conditions: 10 µM unless noted
- Procedure: Growth inhibition of the OVCAR-8 human tumor cell line is measured as a screen for anti-cancer activity. Cells are grown in 96 well plates and exposed to the test compound for 48 hours. Compounds are tested at a single concentration, which is 10^-5 M for most compounds. The reported endpoint is percent growth (GI% or GIPRCNT), where numbers from 0 - 100% represent growth inhibition, and numbers from -100% - 0 represent cell death. For example, a value of 40 represents 60% growth inhibition. […]
This is part of a sample that, as a whole, favours compounds with a hit. Of some 83,000 tested, about 20% had one in any assay.
Values of growth greater than or equal to 40% map to Condition met; values below map to Condition not met.

{"molecule": "CN(C)c1ccnc(NCCCSC(c2ccccc2)(c2ccccc2)c2ccccc2)c1", "tgt": "OVCAR-8 ovarian", "category": "Condition met"}

Is growth for `OCNc1ccc(-n2cnc3cc(-c4ccc(O)cc4)ccc32)cc1C(F)(F)F` at or above 40%?
Condition not met

Is growth for `Cc1ccc(S(=O)(=O)c2nc(S(=O)(=O)c3ccc(C)cc3)c(N3CCN(C)CC3)s2)cc1` at or above 40%?
Condition met

Is growth for `Cc1ccc(C(=O)NN2C(=O)/C(=C/C=C/c3ccc([N+](=O)[O-])o3)SC2=S)cc1` at or above 40%?
Condition not met

* * *

- Tested on: SR leukemia
- experiment.notes: NCI-60 one-dose screen, 48 h
- assay.conditions: 10 µM unless noted
- Method: Growth inhibition of the SR human tumor cell line is measured as a screen for anti-cancer activity. Cells are grown in 96 well plates and exposed to the test compound for 48 hours. Compounds are tested at a single concentration, which is 10^-5 M for most compounds. The reported endpoint is percent growth (GI% or GIPRCNT), where numbers from 0 - 100% represent growth inhibition, and numbers from -100% - 0 represent cell death. For example, a value of 40 represents 60% growth inhibition. […]
Compounds without any hit were thinned out: in the full panel of roughly 83,000, 20% have a hit. Calls of active or inactive are those of the source. The calls were made as follows: active = growth percent below 10; inactive = the rest.
Result category, one only: active, inactive

Example cases with answers are listed next.
{"compound": "COc1ccc(-c2nc(SCC(C)C)nc(NCCc3c[nH]c4ccccc34)c2C#N)cc1", "tgt": "SR leukemia", "category": "inactive"}
{"compound": "COc1ccc(NC(=O)[C@H](CO)NC(=O)OC(C)(C)C)cc1C(=O)Nc1cccc(C2CC(=O)c3c(cc(OC)c(OC)c3OC)O2)c1 (stereo not given in full)", "tgt": "SR leukemia", "category": "inactive"}
{"compound": "O=C(Nc1ccccc1)N1CCN(c2cc(-c3cn(-c4ccccc4)nc3-c3cccc(O)c3)ccn2)CC1", "tgt": "SR leukemia", "category": "inactive"}

Lab log entry: C#CCOc1cc(N(CC)CC)ccc1C(C(=O)NC(C)(C)C)N(C(=O)C1CCc2cc(F)ccc2O1)c1ccc(F)cc1 (stereo not given) — outcome as called in the assay?
inactive

Lab log entry: Cc1cccc(NC(=O)[C@]23CCC(C)(C)CC2C2=CCC4[C@@]5(C)C[C@@H](O)[C@H](O)[C@@](C)(CO)C5CC[C@@]4(C)[C@]2(C)CC3)c1 (stereo not given in full) — outcome as called in the assay?
active

Lab log entry: `COc1ccc(-c2ccnc(SCc3cc4cc(Cl)ccc4[nH]c3=O)n2)cc1` — outcome as called in the assay?
inactive

Lab log entry: Cc1ccc([C@H]2C(C(=O)c3ccc(Cl)cc3)C3(N[C@@H]2c2ccccc2)C(=O)Nc2ccccc23)cc1 (stereo not given in full) — outcome as called in the assay?
inactive

Lab log entry: `O=C(c1ccccc1)c1ccc2nc(-c3cccc(Cl)c3)[nH]c2c1` — outcome as called in the assay?
inactive

Lab log entry: `Cc1ccc(S(=O)(=O)c2nc(S(=O)(=O)c3ccc(C)cc3)c(N3CCN(C)CC3)s2)cc1` — outcome as called in the assay?
inactive

Lab log entry: COc1cc(C2CC(c3cc(OC)c(OC)c(OC)c3)=NN2C(C)=O)ccc1OCc1ccccc1 (stereo not given) — outcome as called in the assay?
inactive

Lab log entry: `COc1ccc(C(=O)/C=C/c2ccc(Oc3nc(Nc4ccc(F)cc4)nc(N(C)C)n3)c(OC)c2)cc1` — outcome as called in the assay?
inactive

Lab log entry: `CSc1ccc(NC(=O)c2ccc3nnn(/C(C#N)=C/c4ccccn4)c3c2)cc1` — outcome as called in the assay?
active

Lab log entry: `CC(=O)c1c(N)c(C#N)cn1-c1ccc(Cl)cc1Cl` — outcome as called in the assay?
inactive

Lab log entry: `CCCCSc1nc(Nc2ccc(S(N)(=O)=O)cc2)c(C#N)c(-c2ccc(Cl)cc2)n1` — outcome as called in the assay?
inactive

Lab log entry: `C#CCOc1ccc(/C=N/Nc2nc(-c3cc4cc(Br)ccc4oc3=O)cs2)cc1OC` — outcome as called in the assay?
inactive

Lab log entry: CCOC(=O)/C=C/c1cccc2c1C(=O)NC(C)(c1cc3cc(Cl)ccc3oc1=O)N2 (stereo not given) — outcome as called in the assay?
active

Lab log entry: `O=c1[nH]c(=O)c2c(-c3cc4ccccc4oc3=O)ccnc2[nH]1` — outcome as called in the assay?
inactive

Lab log entry: `Brc1ccc(-c2n(Cc3ccc4ccccc4c3)c(-c3ccccc3)c(-c3ccccc3)[n+]2Cc2ccc3ccccc3c2)cc1` — outcome as called in the assay?
active

Lab log entry: C=C1CC[C@@H]2[C@]3(C)COC(c4cn(-c5ccccc5)nc4-c4ccccc4)O[C@@H]3CC[C@@]2(C)[C@@H]1C/C=C1/C(=O)OC[C@H]1O (stereo not given in full) — outcome as called in the assay?
active

Lab log entry: `Cn1cc(-c2cc3nc(-c4c[nH]c5ccc(Cl)cc45)cc(N)n3n2)c2ccccc21` — outcome as called in the assay?
active

Lab log entry: `COc1ccc(/C=C/c2nc3ccccc3nc2Nc2cccc(C)c2)cc1` — outcome as called in the assay?
inactive

Lab log entry: `O=c1[nH]c2ccccc2cc1CSc1nccc(-c2ccc3ccccc3c2)n1` — outcome as called in the assay?
inactive

Lab log entry: `COc1ccc(/C=C/c2nc3ccccc3c(=O)n2CC(=O)Nc2ccc(OC)cc2)cc1` — outcome as called in the assay?
inactive

Lab log entry: `COc1ccc(C(=O)/C=C/c2ccc(OC)c(OCc3ccccc3)c2)cc1OC` — outcome as called in the assay?
inactive

Lab log entry: CC(C)(C)OC(=O)/C=C/c1cccc2c1C(=O)NC(C)(c1cc3cc(Cl)ccc3oc1=O)N2 (stereo not given) — outcome as called in the assay?
active

The reported measurements were obtained from PubChem BioAssay (NCI).
